# protocolSummary: Confirmatory qHTS for Identification of Small Molecule Activators of Huntingtin-Antisense Promoter Activity
# experimentalSetup: HEK293 HTT-AS promoter firefly luciferase reporter, 24 h; series mostly up to 57.5 µM
The source made the active and inactive calls. The call rests on the fitted dose curve; in most records, active means well fitted activation curve with a large enough effect; inconclusive means small, poorly fitted or top-dose-only effect; inactive means no such curve, though single readings can be large or run the other way.
Choose one outcome from this list and give only that: Yes = active, No = inactive

compound=CCN(c1ccccc1)S(=O)(=O)c1c(-c2ccc(C)cc2)csc1C(=O)OC answerlabel=No
compound=COc1ccc(-c2cc(C)no2)cc1S(=O)(=O)N1CCN(c2ccccc2F)CC1 answerlabel=No
compound=COc1cc(NS(=O)(=O)c2ccc(-c3cc(C)no3)cc2)cc(OC)c1 answerlabel=No

Consider the additional compound presented here.
Field: outcome | Entry: O=C(Nc1ccc(Br)cc1)c1cc(S(=O)(=O)NC2CCCC2)ccc1F No

###

# protocolSummary: Confirmatory qHTS for Identification of Small Molecule Activators of Huntingtin-Antisense Promoter Activity
# experimentalSetup: HEK293 HTT-AS promoter firefly luciferase reporter, 24 h; series mostly up to 57.5 µM
# Description: Assay Provider: Russell L. Margolis M.D. Department Neurology, Johns Hopkins University School of Medicine, Baltimore, MD Huntington's Disease (HD) is a neurodegenerative disorder caused by a CAG repeat expansion in exon 1 of huntingtin (HTT). […] 7; Detection; Luminescence; FLuc […] 1; High-throughput screening, measuring luminescence from a Hek293 luciferase reporter, was performed in 1,536 well white-walled tissue-culture treated plates. […]
Calls of active or inactive are those of the source. Calls follow the shape of the dose curve; as a rule, active = well fitted activation curve with a large enough effect; inconclusive = small, poorly fitted or top-dose-only effect; inactive = no such curve, though single readings can be large or run the other way.
The reply should be one of these categories: yes (active), no (inactive)

compound="Cc1ccc(C2=CC(c3ccc(Cl)cc3)n3nc(-c4ccc(C)cc4)nc3N2)cc1 (stereo not given)" answerlabel=no
compound=Cc1ccc(-n2ncc3c(N(CCO)Cc4ccccc4)ncnc32)cc1 answerlabel=yes
compound=Cc1ccc(Cl)cc1N1CCN(C(=O)Cn2cnc3nc4c(cc3c2=O)CCCC4)CC1 answerlabel=no
compound=COc1ccc(-c2nc(N3CCOCC3)c3sc(CN(C)c4ncc(C(=O)NO)cn4)cc3n2)cn1 answerlabel=no

Continue with the next compound.
# fetch the recorded call for FC(F)(F)c1cccc(Nc2c3c(nc4ccc(Cl)cc24)CCC3)c1 here no

###

# protocolSummary: Confirmatory qHTS for Identification of Small Molecule Activators of Huntingtin-Antisense Promoter Activity
# experimentalSetup: HEK293 HTT-AS promoter firefly luciferase reporter, 24 h; series mostly up to 57.5 µM
Activity calls are given as the source filed them. The call rests on the fitted dose curve; in most records, active means well fitted activation curve with a large enough effect; inconclusive means small, poorly fitted or top-dose-only effect; inactive means no such curve, though single readings can be large or run the other way.
metric: outcome

Use these answered entries as a reference point.
compound=O=S(=O)(NCc1ccc(Cl)cc1)c1ccc(N2CCCCS2(=O)=O)cc1 observedvalue=inactive
compound="CC1Cc2cc(S(=O)(=O)N(Cc3ccccc3)C(C)C)ccc2N1C(=O)C1CCC1 (stereo not given)" observedvalue=inactive
compound=CCOc1ccc(CCNC(=O)c2cc3n(n2)CCCN(Cc2ccc(C)cc2)C3=O)cc1OCC observedvalue=inactive
compound="COc1ccc(NS(=O)(=O)c2ccc3c(c2)CC(C)N3C(=O)C2CCC2)cc1OC (stereo not given)" observedvalue=inactive
compound=COc1ccc(-c2[nH]c3ccccc3c2SCCNC(=O)c2cc(OC)c(OC)c(OC)c2)cc1 observedvalue=inactive

Kindly indicate its recorded outcome. Item: O=C1CCCc2cc(S(=O)(=O)NCC3CCC(C(=O)Nc4ccccc4F)CC3)ccc2N1 (stereo not given) inactive

Answer with reported outcome of CCCCOc1ccc(CNC(=O)c2ccc(NC(=O)N3CCSc4ncccc43)cc2)cc1 inactive

Please supply the value of reported outcome for the item Cc1ccc(C)c(N2CCN(C(=O)c3nn(C)c4c3CS(=O)(=O)c3ccccc3-4)CC2)c1 inactive

Assign outcome to the following record: CC(=O)N1CCCc2cc(S(=O)(=O)N(C)CC(=O)Nc3cccc(Cl)c3C)ccc21 inactive

Write down outcome measured for item CCc1cccc(-n2nnc(S(=O)(=O)c3ccc(OC)cc3)c2C)c1 inactive
